biological target: TcMCP-1 (Trypanosoma cruzi); assay: Continuous fluorogenic (FRET) TcMCP-1 assay with Abz-LKFK(Dnp)-OH, primary and secondary screening; format: biochemical
Sequence (Q6ZXC0 entry or part of it): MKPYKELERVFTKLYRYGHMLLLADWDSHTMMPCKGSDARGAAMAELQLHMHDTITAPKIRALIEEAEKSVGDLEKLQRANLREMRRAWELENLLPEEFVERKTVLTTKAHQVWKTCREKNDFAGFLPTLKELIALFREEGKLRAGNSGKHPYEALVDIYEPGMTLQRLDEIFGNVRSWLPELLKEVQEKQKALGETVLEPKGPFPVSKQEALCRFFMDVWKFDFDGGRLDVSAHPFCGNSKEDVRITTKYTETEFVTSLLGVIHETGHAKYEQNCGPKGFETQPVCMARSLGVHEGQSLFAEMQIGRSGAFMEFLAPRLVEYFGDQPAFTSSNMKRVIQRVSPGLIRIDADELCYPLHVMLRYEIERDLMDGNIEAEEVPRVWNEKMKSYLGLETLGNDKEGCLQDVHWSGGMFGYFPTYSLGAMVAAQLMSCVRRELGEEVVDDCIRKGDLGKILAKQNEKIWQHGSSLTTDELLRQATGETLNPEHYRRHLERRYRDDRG
Each record is given class 1 if its reported IC50 is strictly below 20 µM. Records at or above 20 µM are given class 0.

# example entries with known answers
{"Compound": "Fc1ccccc1N1CC2CCN(c3cccnc3)CC2C1 (stereo not shown)", "Class assignment": "class 1"}
{"Compound": "CN(CC1CCCO1)S(=O)(=O)c1ccc(C(=O)Nc2nc(-c3ccccn3)cs2)cc1 (stereo not shown)", "Class assignment": "class 1"}

Req: Just wondering, is IC50 of `COc1cc(Nc2nccc(Nc3onc(C)c3C)n2)cc(S(=O)(=O)C2CCOCC2)c1` below 20 µM?
Resp: class 1

Req: Just wondering, is IC50 of `COc1ccc2ncc(Cl)c(CCN3CC[C@@H](NCc4cc5c(cn4)OCS5)[C@H](O)C3)c2n1` below 20 µM?
Resp: class 1
